Listing: pIC50 of selected molecules
Biological target: murine CCR2 (Mus musculus)
Construct: host or cells: U2OS β-arrestin cell line
Sequence (P51683 whole entry): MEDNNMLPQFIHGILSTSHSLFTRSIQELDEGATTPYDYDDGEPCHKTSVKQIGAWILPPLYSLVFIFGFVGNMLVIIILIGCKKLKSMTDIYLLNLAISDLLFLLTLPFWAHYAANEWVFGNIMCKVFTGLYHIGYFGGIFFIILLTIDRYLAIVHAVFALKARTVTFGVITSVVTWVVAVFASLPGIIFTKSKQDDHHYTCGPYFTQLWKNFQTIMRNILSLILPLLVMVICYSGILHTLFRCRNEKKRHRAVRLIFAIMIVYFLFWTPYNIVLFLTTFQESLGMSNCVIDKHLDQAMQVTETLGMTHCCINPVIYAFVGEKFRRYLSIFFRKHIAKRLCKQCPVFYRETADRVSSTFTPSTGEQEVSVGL
Experiment: Functional β-arrestin recruiting test with human MCP-1 (B-2a)
Type: cell-based
Conditions: U2OS β-arrestin cell line transfected with murine CCR2; agonist human MCP-1 at EC50 (about 3 nM); in some cases means of several determinations
pIC50: −log10 of the molar value.
measured_endpoint: pIC50

CC(C)c1nc(-c2nc(C(F)(F)F)c(Oc3ccc(Cl)c(Cl)c3)c(=O)[nH]2)no1 ... 6.80
COc1cccnc1Nc1nc(C(F)(F)F)c(Oc2ccc(Cl)c(Cl)c2)c(=O)[nH]1 ... 6.59
O=c1[nH]c(-c2ccccn2)nc(C(F)(F)F)c1Cc1ccc(Cl)c(Cl)c1 ... 6.96
COc1cccc(Nc2nc(C(F)(F)F)c(Oc3ccc(Cl)c(Cl)c3)c(=O)[nH]2)n1 ... 4.96
O=c1[nH]c(-c2cccc(O)n2)nc(C(F)(F)F)c1Oc1ccc(Cl)c(Cl)c1 ... 5.85
COc1cnccc1-c1nc(C(F)(F)F)c(Cc2ccc(Cl)c(Cl)c2)c(=O)[nH]1 ... 6.72
O=c1[nH]c(-c2noc(C3CC3)n2)nc(C(F)(F)F)c1Oc1ccc(Cl)c(Cl)c1 ... 6.82
O=c1[nH]c(Cc2ccncc2)nc(C(F)(F)F)c1Cc1ccc(Cl)c(Cl)c1 ... 6.43
Nc1nc[nH]c1-c1nc(C(F)(F)F)c(Oc2ccc(Cl)c(Cl)c2)c(=O)[nH]1 ... 5.19
O=c1[nH]c(CC2CCOCC2)nc(C(F)(F)F)c1Cc1ccc(Cl)c(Cl)c1 ... 6.00
O=c1[nH]c(-c2ccncc2)nc(C(F)(F)F)c1Cc1ccc(Cl)c(Cl)c1 ... 6.00
COCc1nc(-c2nc(C(F)(F)F)c(Oc3ccc(Cl)c(Cl)c3)c(=O)[nH]2)no1 ... 6.96
O=c1[nH]c(N2CCCC2)nc(C(F)(F)F)c1Cc1ccc(Cl)c(Cl)c1 ... 5.85
